This collection of values is drawn from the RNAGym collection of RNA variant scans (doi:10.7554/elife.80360).

Please go through the items and note down their self-cleavage.
B1: Twister Ribozyme (parent)
chain: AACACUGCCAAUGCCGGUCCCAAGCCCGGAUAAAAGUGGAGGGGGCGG

Variants of: B1
assay notes: self-cleavage, relative activity (ratio to wild type); higher = more cleavage; co-transcriptional

Field: example entries. Status: answers known.
[
  {
    "variant label": "G13C G39C",
    "self-cleavage": 0.117
  },
  {
    "variant label": "C5A G38A",
    "self-cleavage": 0.206
  },
  {
    "variant label": "C25U G38U",
    "self-cleavage": 0.614
  }
]

Hi, could you look up self-cleavage for each item in my list?
1. A11U A32G
2. C8U U18C
3. G39A C46U
4. G17U G36U

1. 0.911
2. 0.0906
3. 0.445
4. 0.0806

Hi, could you look up self-cleavage for each item in my list?
1. C19U G38C
2. A2U A40G
3. G13C G24U
4. G28U A33C
5. C14A G24C
6. C8A G48U

[0.782, 0.163, 0.0687, 0.838, 0.0765, 0.257]
